assay-target: T1, 4H2649-AA
T1 chain: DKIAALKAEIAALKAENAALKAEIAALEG
experiment-notes: two-hybrid library CCmax;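 note: natural log of median RNA to DNA barcode read ratio; higher means stronger binding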
test-parameters: mean of both orientations
observed-property: interaction score

- DEIAALEAENAALEAKIAALKAKIAALKG [4H174-AA]: -0.748
- DKIAALEAKNAALEAKIAALKAEIAALEG [4H2473-AA]: -0.843

I = DKIAALEAKIAALEAENAALKAEIAALKG [4H2330-AA]
II = DKIAALEAKIAALKAENAALEAKIAALEG [4H2389-AA]
Asked: In the pair I and II , the larger recorded interaction score belongs to which? Identify your selection by its label.
Given back: II

A = DKIAALEAEIAALEAKNAALKAKIAALEG [4H2109-AA]
B = DKIAALEAEIAALKAKNAALEAEIAALKG [4H2162-AA]
Asked: In the pair A and B , the larger recorded interaction score belongs to which? Identify your selection by its label.
Given back: A

Entry source: paper PMC10397247
